Test system: ATP;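 note: ATP exposure 15 min at 22 °C before imaging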
assayProtocol: switch fluorescence ratio, 500 uM ATP over buffer (Cy3 cluster intensity, sum of 5 cycles each) (fold (ratio)); higher = stronger signal-on switching upon ATP binding; sequences stand for … in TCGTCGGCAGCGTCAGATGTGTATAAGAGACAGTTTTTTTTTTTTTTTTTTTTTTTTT…TC
experimentalParameters: aptamer strand: ATP DNA aptamer (quencher-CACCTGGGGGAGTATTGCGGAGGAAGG + anchor), 100 nM annealed; ATP concentration: 500 uM
Values of switch fluorescence ratio greater than or equal to 1 map to Criterion met; values below map to Criterion not met.

Please review the following examples before continuing.
inputSequence: ACTTTACGGC
testTarget: ATP;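 note: ATP exposure 15 min at 22 °C before imaging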
classLabel: Criterion met

inputSequence: TTCTTCGGGC
testTarget: ATP;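 note: ATP exposure 15 min at 22 °C before imaging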
classLabel: Criterion met

inputSequence: CGTGTAAGAT
testTarget: ATP;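 note: ATP exposure 15 min at 22 °C before imaging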
classLabel: Criterion met

inputSequence: CCGAATTATA
testTarget: ATP;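 note: ATP exposure 15 min at 22 °C before imaging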
classLabel: Criterion met

inputSequence: TACCTAAACG
testTarget: ATP;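 note: ATP exposure 15 min at 22 °C before imaging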
classLabel: Criterion met

Kindly determine if switch fluorescence ratio recorded for "TTTCTGGCAA" is above or exactly 1.
Criterion met

Say whether "TCTTCGGCGA" shows switch fluorescence ratio of 1 or more.
Criterion met

Could you please find out whether "AAATTGGGAT" has switch fluorescence ratio that meets 1 or exceeds it?
Criterion not met

switch fluorescence ratio >= 1 for "CCTGTTACTT" ?
Criterion not met

Decide: is the reported value of switch fluorescence ratio for "GGGTTGCGGA" equal to or greater than 1?
Criterion not met

Please tell me: is the sequence "ACTCAATGCA" at or over 1 in terms of switch fluorescence ratio?
Criterion met

Record "CAGTCTACGA" ; criterion: switch fluorescence ratio no lower than 1. Met?
Criterion met

Entry "GCTCGTGATA" : is its switch fluorescence ratio no less than 1?
Criterion met

Does "CCGGGGATGT" have a reported switch fluorescence ratio of at least 1?
Criterion met

# bool: switch fluorescence ratio of "GAGGGGTTGT" >= 1
Criterion met

Check this sequence for switch fluorescence ratio at or above 1: "TATACGGCAT"
Criterion met

Could you please find out whether "TGTTGATCCT" has switch fluorescence ratio that meets 1 or exceeds it?
Criterion met

###

Below: a set of entries, each annotated with reported switch fluorescence ratio.
Test system: ATP;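 note: ATP exposure 15 min at 22 °C before imaging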
assayProtocol: switch fluorescence ratio, 500 uM ATP over buffer (Cy3 cluster intensity, sum of 5 cycles each) (fold (ratio)); higher = stronger signal-on switching upon ATP binding; sequences stand for … in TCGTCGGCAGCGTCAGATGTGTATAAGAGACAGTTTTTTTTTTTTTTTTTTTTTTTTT…TC
experimentalParameters: aptamer strand: ATP DNA aptamer (quencher-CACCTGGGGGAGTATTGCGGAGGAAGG + anchor), 100 nM annealed; ATP concentration: 500 uM

Field: example entries. Status: answers known.
inputSequence: AATGCGCATC
switch fluorescence ratio: 1.05
--
inputSequence: ATAGTATGGG
switch fluorescence ratio: 0.99
--
inputSequence: AAGGTTTTTC
switch fluorescence ratio: 1.01
--
inputSequence: TGCGGGGTCA
switch fluorescence ratio: 1.02

# ---- query sequence ----
Query (sequence): "TATGAGCGCT" ; field requested: switch fluorescence ratio
1.03

###

Reported switch fluorescence ratio values for a set of sequences
Tested on: ATP;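 note: ATP exposure 15 min at 22 °C before imaging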
assayProtocol: switch fluorescence ratio, 500 uM ATP over buffer (Cy3 cluster intensity, sum of 5 cycles each) (fold (ratio)); higher = stronger signal-on switching upon ATP binding; sequences stand for … in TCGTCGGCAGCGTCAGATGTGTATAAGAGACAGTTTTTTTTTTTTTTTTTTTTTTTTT…TC
experimentalParameters: aptamer strand: ATP DNA aptamer (quencher-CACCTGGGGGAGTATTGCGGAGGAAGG + anchor), 100 nM annealed; ATP concentration: 500 uM
Please respond with just the number, no unit label.

Field request: switch fluorescence ratio | item: "AGGGGGAAGT"
0.99
